assay: solvent given as SMILES; details: in ClC(Cl)Cl
value_kind: absorption maximum (nm)

{"record_smiles": "Cc1ccc(-c2oc3cccc4c5c(-c6ccc(C)cc6)c(=N)oc6cccc(c2c34)c65)cc1", "value_kind": "absorption maximum", "meas_value": 400}
{"record_smiles": "CN(C)c1ccc(/C=C/c2cc[n+](CCC[n+]3ccc(/C=C/c4ccc(N(C)C)cc4)cc3)cc2)cc1", "value_kind": "absorption maximum", "meas_value": 501}
{"record_smiles": "CCCCn1c2ccccc2c2ccc3c4cc(-c5ccc6ccccc6c5)ccc4n(CCCC)c3c21", "value_kind": "absorption maximum", "meas_value": 332}
{"record_smiles": "C(#Cc1ccncc1)C(C#Cc1ccncc1)=Cc1ccc(C=C(C#Cc2ccncc2)C#Cc2ccncc2)cc1", "value_kind": "absorption maximum", "meas_value": 420}
{"record_smiles": "O=c1oc2ccccc2cc1-c1cn2ccccc2n1", "value_kind": "absorption maximum", "meas_value": 349}
{"record_smiles": "CCCCC1(CCCC)c2cc(C#Cc3ccc4ccc5cccc6ccc3c4c56)ccc2-c2ccc(C#Cc3ccc4ccc5cccc6ccc3c4c56)cc21", "value_kind": "absorption maximum", "meas_value": 421}
{"record_smiles": "CS(=O)(=O)c1ccc(-c2cc3ccc(N)cc3c(=O)o2)cc1", "value_kind": "absorption maximum", "meas_value": 351}
{"record_smiles": "Cc1c2c(nc3ccccc13)-c1cc3c(cc1CC2)-c1nc2ccccc2c(C)c1CC3", "value_kind": "absorption maximum", "meas_value": 372}
{"record_smiles": "CCCCCCCCOc1ccc(-c2c3c4n(c(-c5ccc(OCCCCCCCC)cc5)c3c3n2[B-](F)(F)[n+]2c(ccc5cc(C(C)(C)C)ccc52)C=3C#N)[B-](F)(F)[n+]2c(ccc3cc(C(C)(C)C)ccc32)C=4C#N)cc1", "value_kind": "absorption maximum", "meas_value": 754}
{"record_smiles": "COc1ccc(-n2c3c4ccccc4nc(-c4ccc(C#N)cc4)c3c3c2c2c(-c4ccc(C#N)cc4)nc4ccccc4c2n3-c2ccc(OC)cc2)cc1", "value_kind": "absorption maximum", "meas_value": 315}
{"record_smiles": "Cc1ccc(-c2cc(-c3ccccc3Cl)c3c(N)nc(N4CCCC4)c(C#N)c3n2)cc1", "value_kind": "absorption maximum", "meas_value": 418}
{"record_smiles": "CC(C)(C)c1ccc2oc3nc4oc5ccc(-n6c7ccccc7c7ccccc76)cc5c4cc3c2c1", "value_kind": "absorption maximum", "meas_value": 348}
{"record_smiles": "CCCCN1C(=O)c2cccc3c([O-])c(/C=C/c4sc5ccccc5[n+]4CC)cc(c23)C1=O", "value_kind": "absorption maximum", "meas_value": 589.53}
{"record_smiles": "CC(C)(C)NC(=O)c1cc2ccc3cccc4ccc(c1C(=O)NC(C)(C)C)c2c34", "value_kind": "absorption maximum", "meas_value": 385}
{"record_smiles": "Cc1c2c(c(C)c3ccccc13)-c1cc3nc4ccccc4nc3cc1-2", "value_kind": "absorption maximum", "meas_value": 448}
{"record_smiles": "CN(C)c1ccc(-c2ccc(-c3cc(N4CCCCC4)c(C#N)c4c3-c3ccccc3CC4)cc2)cc1", "value_kind": "absorption maximum", "meas_value": 348}
{"record_smiles": "CCCCCCCCC1(CCCCCCCC)c2cc(-c3ccccc3)ccc2-c2ccc(-c3ccccc3)cc21", "value_kind": "absorption maximum", "meas_value": 327}
